- system: Type-1 angiotensin II receptor (Oryctolagus cuniculus)
- Sequence (P34976 whole entry): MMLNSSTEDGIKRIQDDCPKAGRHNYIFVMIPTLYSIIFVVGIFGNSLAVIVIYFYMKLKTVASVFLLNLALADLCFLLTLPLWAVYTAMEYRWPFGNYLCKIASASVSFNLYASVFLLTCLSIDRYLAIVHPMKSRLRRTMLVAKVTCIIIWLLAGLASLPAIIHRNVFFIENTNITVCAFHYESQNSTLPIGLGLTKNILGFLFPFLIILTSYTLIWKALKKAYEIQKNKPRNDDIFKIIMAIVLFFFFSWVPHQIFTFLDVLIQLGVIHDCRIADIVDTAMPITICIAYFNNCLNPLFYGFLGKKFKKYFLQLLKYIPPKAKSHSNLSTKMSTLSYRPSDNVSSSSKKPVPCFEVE
Listing of recorded IC50 by entry.
Supply the numeric figure in nM, leaving out any unit text.

Identify measured IC50 associated with CCCCc1nnc(SCc2cccc(C(=O)O)c2)n1Cc1ccc(NC(=O)c2ccccc2C(=O)O)cc1
15

Identify measured IC50 associated with CCCCc1nnc(SCc2ccc(C(F)(F)F)cc2)n1Cc1ccc(NC(=O)c2ccccc2C(=O)O)cc1
42

Identify measured IC50 associated with CCCCc1nnc(SCC(=O)c2ccccc2)n1Cc1ccc(NC(=O)c2ccccc2C(=O)O)cc1
190

Identify measured IC50 associated with CCCCc1nnc(SCc2ccccc2C)n1Cc1ccc(-c2ccccc2-c2nn[nH]n2)cc1
17

Identify measured IC50 associated with CCCCc1nnc(SCc2ccc([N+](=O)[O-])cc2)n1Cc1ccc(-c2ccccc2-c2nn[nH]n2)cc1
6.6

Identify measured IC50 associated with CCCSc1nnc(-c2ccccc2)n1Cc1ccc(NC(=O)c2ccccc2C(=O)O)cc1
1600

Identify measured IC50 associated with CCCCc1nnc(C(=O)NCc2ccccc2)n1Cc1ccc(-c2ccccc2-c2nnn[nH]2)cc1
57

Identify measured IC50 associated with CCCCc1nn2c(-c3ccccc3)cnc2n1Cc1ccc(-c2ccccc2-c2nn[nH]n2)cc1
220

Identify measured IC50 associated with CCCCc1nc(Cl)c(CO)n1Cc1ccc(-c2ccccc2C(=O)O)cc1
230

Identify measured IC50 associated with CCCCc1nnc(SCC(C)C)n1Cc1ccc(-c2ccccc2-c2nn[nH]n2)cc1
72

Identify measured IC50 associated with CCCCc1nnc(SCc2ccccc2Cl)n1Cc1ccc(-c2ccccc2-c2nnn[nH]2)cc1
110

Identify measured IC50 associated with CCCCc1nnc(SCC(=O)NC)n1Cc1ccc(NC(=O)c2ccccc2C(=O)O)cc1
720

Identify measured IC50 associated with CCCCc1nn2cc(CC)nc2n1Cc1ccc(-c2ccccc2-c2nn[nH]n2)cc1
55

Identify measured IC50 associated with CCCCc1nnc(SCC(=O)OC)n1Cc1ccc(NC(=O)c2ccccc2C(=O)O)cc1
330

Identify measured IC50 associated with CCCCc1nnc(SCc2ccc3ccccc3c2)n1Cc1ccc(NC(=O)c2ccccc2C(=O)O)cc1
49

Identify measured IC50 associated with CCCCc1nnc(SC)n1Cc1ccc(-c2ccccc2-c2nnn[nH]2)cc1
310

Identify measured IC50 associated with CCCSc1nnc(Cc2ccccc2)n1Cc1ccc(NC(=O)c2ccccc2C(=O)O)cc1
380

Identify measured IC50 associated with CCCCc1nnc(OCc2ccccc2)n1Cc1ccc(-c2ccccc2-c2nn[nH]n2)cc1
370

Identify measured IC50 associated with CCCCc1nn2cc(C)nc2n1Cc1ccc(-c2ccccc2-c2nnn[nH]2)cc1
55

Where these numbers come from: ChEMBL document CHEMBL1127039
